Test system: mCherry expressing C. trachomatis serovar L2 454/Bu
PROCEDURE DETAILS: Primary screen of natural compound library, Chlamydia inclusion count (mCherry imaging and FITC immunostaining in duplicate plates)
Type: cell-based, Chlamydia trachomatis
COND: Chlamydia trachomatis; 10 μM, 48 hpi, HeLa cells, MOI 0.6, mCherry detection, vs DMSO control; read-out: Screen inhibition at 10 μM (%) mCherry
MEASURE: inhibition at 10 µM (%)
The answer is to be given in %; state only the numeric part.

Entry under review: CCCCNC(=O)NCCc1c[nH]c2c1C(=O)C1=C(NC=CS1(=O)=O)C2=O . Reported inhibition at 10 µM?
100

Also, NCCc1c[nH]c2c1C(=O)C1=C(NCCS1(=O)=O)C2=O please.
100

Also, CC(=O)NCCc1c[nH]c2c1C(=O)C1=C(NC=CS1(=O)=O)C2=O please.
99

Also, NCCc1c[nH]c2c1C(=O)C1=C(NC=CS1(=O)=O)C2=O please.
100

Also, C[C@]1(O)Cc2c(O)c3c(c(O)c2[C@@H](O)C1)C(=O)C=C(NCCN1CCOCC1)C3=O please.
98

Also, CC(C)(C)NC(=O)NCCc1c[nH]c2c1C(=O)C1=C(NC=CS1(=O)=O)C2=O please.
100

Also, COC1=CC(=O)c2c(O)c3c(c(O)c2C1=O)C[C@](C)(O)C[C@@H]3O please.
13

Also, COCCNC1=CC(=O)c2c(O)c3c(c(O)c2C1=O)C[C@](C)(O)C[C@@H]3O please.
100

Also, C[C@]1(O)Cc2c(O)c3c(c(O)c2[C@@H](O)C1)C(=O)C=C(NCCc1ccccc1)C3=O please.
66

====

Test system: wt C. trachomatis
PROCEDURE DETAILS: EC50 determination, large inclusion count in infected HeLa cells, FITC immunostaining
Assay type: cell-based, Chlamydia trachomatis
COND: Chlamydia trachomatis, wt strain, 44-48 h, read-out: EC50 (95% confidence values)
Please provide measured EC50 for the entries that follow.
The answer is to be given in µM; state only the numeric part.

Entry under review: C[C@]1(O)Cc2c(O)c3c(c(O)c2[C@@H](O)C1)C(=O)C=C(NCCc1ccccc1)C3=O [Compound 2] . Reported EC50?
23

Also, COCCNC1=CC(=O)c2c(O)c3c(c(O)c2C1=O)C[C@](C)(O)C[C@@H]3O [Compound 1] please.
5.3

Also, NCCc1c[nH]c2c1C(=O)C1=C(NCCS1(=O)=O)C2=O [Compound 6] please.
2.8

Also, C[C@]1(O)Cc2c(O)c3c(c(O)c2[C@@H](O)C1)C(=O)C=C(NCCN1CCOCC1)C3=O [Compound 4] please.
20.8

====

Please provide measured viability at 25 µM for the entries that follow.
PROCEDURE DETAILS: in vitro
Type: cell-based
COND: human, 25 μM, 48 h, percent of DMSO control; read-out: HeLa cell viability at 25 μM (%)
The answer is to be given in %; state only the numeric part.

Entry under review: COC1=CC(=O)c2c(O)c3c(c(O)c2C1=O)C[C@](C)(O)C[C@@H]3O . Reported viability at 25 µM?
5

Also, C[C@]1(O)Cc2c(O)c3c(c(O)c2[C@@H](O)C1)C(=O)C=C(NCCc1ccc(O)cc1)C3=O please.
41

Also, NCCc1c[nH]c2c1C(=O)C1=C(NCCS1(=O)=O)C2=O please.
77

Also, NCCc1c[nH]c2c1C(=O)C1=C(NC=CS1(=O)=O)C2=O please.
5

Also, CC(=O)NCCc1c[nH]c2c1C(=O)C1=C(NC=CS1(=O)=O)C2=O please.
17

Also, CC(C)(C)NC(=O)NCCc1c[nH]c2c1C(=O)C1=C(NC=CS1(=O)=O)C2=O please.
30

Also, CCCCNC(=O)NCCc1c[nH]c2c1C(=O)C1=C(NC=CS1(=O)=O)C2=O please.
37
